melting point values for the compounds below.

Consider the reported melting point for these compounds:
[
  {
    "Compound": "C#Cc1cnn2c(C(F)(F)F)cc(-c3ccc(Cl)c(C)c3)nc12",
    "melting point": "166 °C"
  },
  {
    "Compound": "Cc1nn2c(C(F)(F)F)cc(-c3ccc(F)c(Cl)c3)nc2c1C#N",
    "melting point": "196 °C"
  },
  {
    "Compound": "CC(C)(O)C(=O)Nc1ccc(Sc2ccccc2)cc1F",
    "melting point": "91 to 92.5 °C"
  }
]

Data request: May I ask what melting point has been recorded for C=Cc1ccc2nc(-c3ccccc3)c(-c3ccccc3)nc2c1 ?
Data returned: 122 to 123 °C

Data request: Another compound to look at: O=C(CC1(O)CCC1)N[C@H]1CC[C@H](CCN2CCN(c3nccc4c3CCO4)CC2)CC1
Data returned: 155 °C

Data request: How about this compound: COc1cc(CC(=O)NCCCc2ccc(C)c(C)c2)ccc1OCCO
Data returned: 119 to 120 °C

Data request: Same question for CS(=O)(=O)c1ccc(-c2sc(-c3ccccc3Cl)nc2-c2ccccc2)cc1 please.
Data returned: 192 to 195 °C

Data request: How about CCC(CC)Nc1cc(C(=O)OC)ccc1N1C(=O)CCC1(CO)CCO (stereo not given) ?
Data returned: 141 to 143 °C

Data request: One more compound: CCCC=CCOc1ccc(C(C)(C)CC(C)(C)C)cc1-n1nc2ccccc2n1
Data returned: 80 to 81 °C

Data request: Quick one: CCCCCC(=O)N1c2ccccc2NC(=O)c2cscc21
Data returned: 127 to 129 °C

Data request: Try this compound next: COc1cc(CCCn2ccnc2)ccc1OCc1coc(-c2cccs2)n1
Data returned: 94 to 95 °C

Data request: Also need Clc1cc(Cl)c2cccc3c2c1N=C3NCCCn1ccnc1 , thanks.
Data returned: 182 to 183 °C

Data request: Again, but for COc1cc2cc(C(=O)N3CC(CCl)c4c3cc(OCc3ccccc3)c3ncccc43)[nH]c2c(OC)c1OC (stereo not given)
Data returned: 182 to 184 °C

Data request: Next entry: O=S(c1ccc(/C=C/c2nc(CNc3ccc(CCCCn4ccnn4)cc3)co2)cc1)C(F)(F)F (stereo not given)
Data returned: 121 to 124 °C

Data request: Proceed to CCOC(=O)Cc1ccc(Nc2ncc3c(n2)N(C)C(=O)N(c2c(Cl)cccc2Cl)C3)cc1
Data returned: 211 to 212 °C

Data request: Same lookup for Clc1c2ccccc2nc2c1sc1ccccc12 , please.
Data returned: 158 to 159 °C

Data request: Try the compound O=C(NCc1ccc(Cl)cc1)c1cnc2sc(Br)cc2c1O
Data returned: 234 to 236 °C

Data request: Proceed to N#Cc1c[nH]c(-c2ccc(F)cc2)c1
Data returned: 158 to 159 °C

Data request: Same again, this time with Cc1cc(Cl)ccc1OCC(=O)N1Cc2cccn2Cc2ccccc21
Data returned: 166 to 167 °C

Data request: Would you kindly repeat that for Cc1cn(C)c(C(=O)O)c1-c1ccccc1[N+](=O)[O-] ?
Data returned: 205 °C

* * *

Measured property: melting point

[
  {
    "Compound": "CC(C)NC(=O)COC1c2ccccc2C(=O)N1c1ccc2ccc(Cl)nc2n1 (centres undefined)",
    "melting point": "188 °C"
  }
]

Data request: Any idea what its melting point is? The compound is COc1ccc2c(c1)c(Cc1nc(-c3ccc(Cl)cc3)cs1)c(C)n2C(=O)c1ccc(Cl)cc1
Data returned: 186 to 188 °C

Data request: Also CN(C)c1ccc(C(=N)NC=Cc2ccc([N+](=O)[O-])cc2)cc1 , if possible.
Data returned: 191 to 193 °C

Data request: Can you check CC1(C)CC(N(CCO)CC(O)COc2ccc(C(C)(C)c3ccc(OCC(O)CN(CCO)C4CC(C)(C)NC(C)(C)C4)cc3)cc2)CC(C)(C)N1 (centres undefined) next?
Data returned: 69 to 71 °C

Data request: And what about the compound COc1ccc(C2CCN(C(N)=O)CC2)cc1CC1CCCC1 ?
Data returned: 168 to 169 °C

Data request: Another compound: COc1ccccc1C=CCCCCCC(=O)O
Data returned: 42 to 43 °C

* * *

Recorded measurements of melting point, one per entry

Solved cases (2 shown):
[
  {
    "Compound": "CCOC(=O)c1nnn(-c2ccc(C3=NNC(=O)NC3C)cc2)c1C(=O)OCC (stereo not given)",
    "melting point": "156 to 158 °C"
  },
  {
    "Compound": "CC(=O)c1cc(Cn2ccnc2)ccc1O",
    "melting point": "106 to 107 °C"
  }
]

Data request: Which melting point value belongs to COc1cc(C(O)CN2CCN(C(c3ccccc3)c3ccccc3)CC2)cc(OC)c1OC (stereo not given) ?
Data returned: 173 °C

Data request: How about OCc1nccc(N2CCOCC2)c1Cl ?
Data returned: 80 to 82 °C

Data request: Now try Cc1c(-c2ccccc2)[nH]c(=O)n1C1CCN(Cc2cccc(Cl)c2)CC1 .
Data returned: 248 to 249 °C

Data request: Same question for S=C1CN=C(c2ccccc2Cl)c2cc(Cl)ccc2N1 please.
Data returned: 251 to 253 °C

Data request: Queued: Cc1ccccc1CC(C(=O)O)C(=O)O
Data returned: 132 to 135 °C

* * *

Measured property: melting point

// worked examples, melting point included
[
  {
    "Compound": "OCCCOc1cccc(NC(=S)NCC(F)(F)F)n1",
    "melting point": "123 to 124 °C"
  },
  {
    "Compound": "CCCC(=O)N(CCC)C1Cc2ccc(-c3ccc(=O)[nH]n3)cc2C1 (single isomer, unassigned; (+))",
    "melting point": "159 to 160 °C"
  },
  {
    "Compound": "Cc1cc(-c2nc3cccnn3c2-c2ccnc(NC(=O)Nc3ccc(C#N)cc3)c2)ccc1F",
    "melting point": "204 to 206 °C"
  },
  {
    "Compound": "CNc1nn(-c2ccccc2)cc1C=O",
    "melting point": "83 to 84 °C"
  }
]

Data request: What value of melting point has been reported for the following compound? CC(=O)Nc1nc(CCc2ccc(NC(=N)N)cc2)c(C(=O)N2CCN(C(C)=O)CC2)s1
Data returned: 206 to 208 °C

Data request: Continue with CCCCCC(C)N(Cc1ccc(C(C)(C)C)cc1)C(Nc1ccc(OC)cc1OC)=C1C(=O)COC1=O (stereo not given)
Data returned: 115 to 117 °C

Data request: Check CCNC(=O)n1nc(Oc2ccc([N+](=O)[O-])cc2C(F)(F)F)cc1C too.
Data returned: 95 to 97 °C

Data request: Try the compound CCn1c(Cl)c(C=O)c(=O)n(CC)c1=O
Data returned: 88 to 89 °C

Data request: Record: O=C(Nc1cccc2c(OC(=O)c3c(Cl)cccc3Cl)ccnc12)c1c(Cl)cccc1Cl
Data returned: 248 °C

Data request: Moving on to the next compound: CCOC(=O)c1ccc(-c2ccc(OC)c(Br)c2)cc1
Data returned: 114 to 115 °C

* * *

Let's look at some compounds and their measured melting point.

[
  {
    "Compound": "CNc1ncnc(N)c1N",
    "Measured property": "melting point",
    "Recorded value": "180 to 185 °C"
  }
]

As a next step, examine the compound that follows.
Data request: What does the record list as melting point for O=C(c1ccn(S(=O)(=O)c2ccccc2)c1)c1ccc(Cl)cc1Cl ?
Data returned: 122 °C

* * *

# melting point per entry

Here's what some known entries look like.
[
  {
    "Compound": "Cc1ccc2cccc(OCc3c(Cl)ccc(S(=O)(=O)NCc4ccccc4)c3Cl)c2n1",
    "melting point": "140 to 142 °C"
  },
  {
    "Compound": "Cc1nnc2n1-c1sc(CC(=O)N3CCOCC3)cc1C(c1ccccc1Cl)=NC2C (centres undefined)",
    "melting point": "126 to 129 °C"
  },
  {
    "Compound": "CC(COc1ccccc1)C1SC(=O)NC1=O (centres undefined)",
    "melting point": "106 to 108 °C"
  },
  {
    "Compound": "CC(C)CC(=O)Nc1c(C(=O)c2cccc(Cl)c2)[nH]c2cc(Cl)ccc12",
    "melting point": "185 to 186 °C"
  },
  {
    "Compound": "CC(=O)n1c(=O)n(CCN2CCC(C(=O)c3ccc(F)cc3)CC2)c(=O)c2ccsc21",
    "melting point": "137 to 141 °C"
  },
  {
    "Compound": "CCCN(CCC)C(=O)Cn1c(-c2ccc([N+](=O)[O-])cc2)nc2cccnc21",
    "melting point": "205 to 208 °C"
  },
  {
    "Compound": "CCN(CC)S(=O)(=O)c1ccc(C(CC2CCCC2)C(=O)Nc2nc3ccc(OC)nc3s2)cc1 (centres undefined)",
    "melting point": "150 to 152 °C"
  },
  {
    "Compound": "COc1cc(-c2nc3cc(OC)cc(OC)c3c(=O)[nH]2)cc(N2CCN(C(C)C)CC2)c1",
    "melting point": "212 to 213 °C"
  },
  {
    "Compound": "Nc1nc(-c2ccco2)c(C(=O)c2ccccn2)s1",
    "melting point": "206 to 207 °C"
  },
  {
    "Compound": "CCCCCCCCCCCCCCCCCCOc1cc(OCCCCC(=O)OC)cc(N(CC(=O)OCc2ccccc2)CC(=O)OCc2ccccc2)c1",
    "melting point": "48 to 50 °C"
  }
]

Data request: Which melting point value belongs to CC1(C)CCC(C)(C)c2cc(-c3cc(C=CC(=O)O)ccc3O)c(OCc3ccc(Cl)cc3)cc21 ?
Data returned: 147 to 149 °C

Data request: Would you mind doing COC(=O)c1ccc(OCCCBr)cc1NC(=O)C=Cc1ccc(-c2ccccc2)cc1 as well?
Data returned: 142 to 145 °C

Data request: Repeat for the following compound: CN(C)c1ccc(C2N(c3ccccc3)CCN2c2ccccc2)c(O)c1
Data returned: 161 to 165 °C

Data request: Next record, please: O=C1c2ccccc2C(=O)N1CCOc1cccc2c1SCCC2
Data returned: 166 °C

Data request: Next record, please: OC[C@H]1CCCN1c1cc(N2CCc3ccccc3C2)c2ccccc2n1
Data returned: 74 to 80 °C

Data request: Subsequent entry: O=C(c1ccc(OCCCl)cc1)N1CCOCC1
Data returned: 102 to 104 °C

Data request: // same read-out, input: CN1Cc2c(C#CC(C)(C)O)ncn2-c2ccccc2C1=O
Data returned: 168 to 169 °C

Data request: Then this compound: CC(C)(C)OC(=O)C1CC(c2ccc(-c3ccc(N4C[C@H](Cn5ccnn5)OC4=O)cc3F)cn2)=NO1 (some centres undefined)
Data returned: 165 to 168 °C

Data request: Entry to check: O=C(O)CN(CC(=O)c1ccccc1)c1c(C(=O)O)[nH]c2cc(Cl)cc(Cl)c12
Data returned: 235 to 237 °C
